target: Tumour suppressor p53/oncoprotein Mdm2 (Homo sapiens); experiment: Inhibitory concentration against MDM2-p53 interaction in SJSA human sarcoma cells
pIC50: recorded values
The quantity pIC50 is defined as the negative base-10 logarithm of the molar concentration.

Before answering, review these 2 worked examples.
O=C1c2ccccc2C(OCCCO)(c2ccc(Cl)cc2)N1Cc1ccccc1 (stereo not given) | 4.80
CCCOC1(c2ccccc2)c2ccccc2C(=O)N1C(Cc1ccc(O)cc1)C(=O)OC (stereo not given) | 4.05

Now turn to the next molecule.
Given COc1ccc(C(O)CNC2(c3ccccc3)c3ccccc3C(=O)N2Cc2ccccc2)cc1 (stereo not given) , state its recorded pIC50.
4.15

----------
List of IC50 values.
molecular target: Tumour suppressor p53/oncoprotein Mdm2 (Homo sapiens, UniProt Q00987); assay: Inhibitory concentration against MDM2-p53 interaction in SJSA human sarcoma cells
Sequence (P04637 whole entry): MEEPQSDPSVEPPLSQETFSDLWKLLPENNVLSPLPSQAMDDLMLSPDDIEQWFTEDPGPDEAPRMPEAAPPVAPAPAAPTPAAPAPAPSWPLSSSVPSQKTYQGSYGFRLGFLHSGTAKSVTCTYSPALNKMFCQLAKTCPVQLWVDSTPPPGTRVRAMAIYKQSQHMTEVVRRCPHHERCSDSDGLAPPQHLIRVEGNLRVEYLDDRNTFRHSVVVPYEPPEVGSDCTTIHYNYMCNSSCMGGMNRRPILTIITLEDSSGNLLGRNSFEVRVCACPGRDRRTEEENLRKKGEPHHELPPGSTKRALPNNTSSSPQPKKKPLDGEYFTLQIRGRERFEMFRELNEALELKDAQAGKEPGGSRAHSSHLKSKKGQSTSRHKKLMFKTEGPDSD
Sequence (Q00987 whole entry): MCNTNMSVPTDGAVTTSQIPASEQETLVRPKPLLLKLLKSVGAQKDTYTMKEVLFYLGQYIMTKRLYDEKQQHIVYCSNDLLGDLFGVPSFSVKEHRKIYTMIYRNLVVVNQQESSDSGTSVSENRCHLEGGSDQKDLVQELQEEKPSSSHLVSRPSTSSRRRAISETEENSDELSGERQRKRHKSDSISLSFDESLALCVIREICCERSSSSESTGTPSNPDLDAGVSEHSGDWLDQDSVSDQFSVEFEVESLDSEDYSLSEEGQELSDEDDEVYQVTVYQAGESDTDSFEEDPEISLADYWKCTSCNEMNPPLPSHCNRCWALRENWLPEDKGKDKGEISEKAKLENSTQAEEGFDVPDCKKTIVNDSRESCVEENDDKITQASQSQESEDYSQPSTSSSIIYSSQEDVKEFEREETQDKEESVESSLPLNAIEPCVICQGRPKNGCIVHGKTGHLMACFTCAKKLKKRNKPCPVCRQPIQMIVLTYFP
Please give a number only; it is taken to be in µM.

CCCN1C(=O)c2ccccc2C1(OCCc1ccccn1)c1ccccc1 (centres undefined) | 100
CCCN1C(=O)c2ccccc2C1(OCc1cc(OC)c(O)c(OC)c1)c1ccccc1 (centres undefined) | 82

Moving on to the next compound.
What IC50 value was documented for this compound, CCCN1C(=O)c2ccccc2C1(OCCc1ccccn1)c1ccc(Cl)cc1 (centres undefined) ?
57

----------
molecular target: Tumour suppressor p53/oncoprotein Mdm2 (Homo sapiens, UniProt Q00987); assay: Inhibitory concentration against MDM2-p53 interaction in SJSA human sarcoma cells
OUTCOME_MEASURE: pIC50
Lab note — pIC50 values are minus log10 of concentrations in M.

Please review the entries below; each comes with its answer.
CC(C)(C)c1ccc(COC2(c3ccc(Cl)cc3)c3ccccc3C(=O)N2Cc2ccccc2)cc1 (stereo not given) | 4.00
COc1cc(COC2(c3ccc(Cl)cc3)c3ccccc3C(=O)N2CCNC(C)=O)cc(OC)c1O (stereo not given) | 4.12

Could you now look at the following compound, please?
Which value of pIC50 has been reported for COc1cc(COC2(c3ccc(Cl)cc3)c3ccccc3C(=O)N2Cc2ccccc2)cc(OC)c1O (stereo not given) in the records?
4.38

----------
target: Tumour suppressor p53/oncoprotein Mdm2 (Homo sapiens, UniProt Q00987); assay: Inhibitory concentration against MDM2-p53 interaction in SJSA human sarcoma cells
OUTCOME_MEASURE: log10(IC50) (log10 of the value in µM)
Quick note: numbers are log10 of IC50, with µM as the unit.

CC(C)(C)c1ccc(COC2(c3ccccc3)c3ccccc3C(=O)N2Cc2ccccc2)cc1 (stereo in doubt; 5) | 1.96

We next turn to a different compound, shown below.
Suppose we examine the compound CCCN1C(=O)c2ccccc2C1(NC(=O)c1ccccc1)c1ccc(C(C)(C)C)cc1 (centres undefined) ; what log10(IC50) value has been reported?
1.82

----------
molecular target: Tumour suppressor p53/oncoprotein Mdm2 (Homo sapiens, UniProt Q00987); assay: Inhibitory concentration against MDM2-p53 interaction in SJSA human sarcoma cells
Each entry below carries its reported pIC50.
Would you please state pIC50, meaning minus log10 of the concentration in mol/L, as a bare number?

What measured pIC50 goes with CC(=O)NCCN1C(=O)c2ccccc2C1(OCc1ccc(C(C)(C)C)cc1)c1ccc(Cl)cc1 (configuration not stated) ?
4.04

// pIC50 lookup, key: CCCN1C(=O)c2ccccc2C1(OCc1cc(OC)c(O)c(OC)c1)c1ccc(Cl)cc1 (configuration not stated)
5.28

So what's the measured pIC50 for this one? O=C1c2ccccc2C(OCCc2ccccn2)(c2ccc(Cl)cc2)N1Cc1ccccc1 (configuration not stated)
4.58

Suppose we examine the compound COc1cc(COC2(c3ccccc3)c3ccccc3C(=O)N2Cc2ccccc2)cc(OC)c1O (configuration not stated) ; what pIC50 value has been reported?
4.75

Form field: reported pIC50 of CCCN1C(=O)c2ccccc2C1(OCCCO)c1ccc(Cl)cc1 (configuration not stated)
4.79

Reported pIC50, compound CC(=O)NCCN1C(=O)c2ccccc2C1(OCc1ccc(C(C)(C)C)cc1)c1ccccc1 (configuration not stated) : ____
4.85

Fill blank: measured pIC50 of the compound CCCN1C(=O)c2ccccc2C1(NC(=O)c1ccc(C(C)(C)C)cc1)c1ccc(OCOCC[Si](C)(C)C)cc1 (configuration not stated) is ____.
4.57

Origin of the recorded values: ChEMBL document CHEMBL1142026
